molecular target: CDK4/cyclin D3 (Homo sapiens); construct: purchased Carna Biosciences, Inc. QS S Assist CDK4/Cyclin D3_FP Kit; assay: Human CDK4/cyclin D3 inhibitory activity (QS S Assist CDK4/Cyclin D3_FP Kit, IMAP fluorescence polarization); format: biochemical; conditions: 50% inhibitory concentration against CDK4/cyclin D3, given as class symbol
So I've got a bunch of compounds here, and I need their IC50 values.

Q: For the compound CCCCNc1nc([C@@H](C)O)cc2cnc(Nc3ccc(CN4CCN(CCO)CC4)cn3)nc12 , give its measured IC50 value.
A: < 10 nM

Q: For the compound CCNc1nc([C@@H](C)O)cc2cnc(Nc3ccc4c(n3)CCNC4)nc12 , give its measured IC50 value.
A: < 10 nM

Q: For the compound CC(C)Nc1nc([C@@H](C)O)cc2cnc(Nc3ccc(CN4CCN(C(=O)CN(C)C)CC4)cn3)nc12 , give its measured IC50 value.
A: < 10 nM

Q: For the compound CC(C)Nc1nc([C@@H](C)O)cc2cnc(Nc3ccc(N4CCN(CC(C)(C)O)CCC4=O)cn3)nc12 , give its measured IC50 value.
A: < 10 nM

Q: For the compound CC(C)Nc1nc(C2CCCOC2)cc2cnc(Nc3ccc(N4CCNCC4=O)cn3)nc12 (centres unmarked) , give its measured IC50 value.
A: 10 to 100 nM

Q: For the compound CC(C)Nc1nc([C@@H](C)O)cc2cnc(Nc3ccc(CN4CCNCC4)nn3)nc12 , give its measured IC50 value.
A: < 10 nM

Q: For the compound CNC(=O)N1CCc2nc(Nc3ncc4cc([C@@H](C)O)nc(NC(C)C)c4n3)ccc2C1 , give its measured IC50 value.
A: < 10 nM

Q: For the compound C[C@@H](O)c1cc2cnc(Nc3ccc(CN4CCN(CCO)CC4)cn3)nc2c(NC23CC(C2)C3)n1 , give its measured IC50 value.
A: < 10 nM

###

molecular target: CDK4/cyclin D3 (Homo sapiens, UniProt P11802); construct: purchased Carna Biosciences, Inc. QS S Assist CDK4/Cyclin D3_FP Kit; experiment: Human CDK4/cyclin D3 inhibitory activity (QS S Assist CDK4/Cyclin D3_FP Kit, IMAP fluorescence polarization); format: biochemical; conditions: Human CDK4/cyclin D3 inhibitory activity; read-out: CDK4 Activity symbol
Sequence (P11802 whole entry): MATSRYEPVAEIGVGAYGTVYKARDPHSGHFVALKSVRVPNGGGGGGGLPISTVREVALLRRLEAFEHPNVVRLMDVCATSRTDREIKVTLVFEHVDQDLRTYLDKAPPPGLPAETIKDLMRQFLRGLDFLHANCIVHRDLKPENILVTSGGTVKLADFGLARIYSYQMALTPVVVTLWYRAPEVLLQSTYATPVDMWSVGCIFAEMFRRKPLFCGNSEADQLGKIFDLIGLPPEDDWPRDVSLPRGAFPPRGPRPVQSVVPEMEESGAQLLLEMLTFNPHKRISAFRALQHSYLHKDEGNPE
Sequence (P30281 whole entry partner): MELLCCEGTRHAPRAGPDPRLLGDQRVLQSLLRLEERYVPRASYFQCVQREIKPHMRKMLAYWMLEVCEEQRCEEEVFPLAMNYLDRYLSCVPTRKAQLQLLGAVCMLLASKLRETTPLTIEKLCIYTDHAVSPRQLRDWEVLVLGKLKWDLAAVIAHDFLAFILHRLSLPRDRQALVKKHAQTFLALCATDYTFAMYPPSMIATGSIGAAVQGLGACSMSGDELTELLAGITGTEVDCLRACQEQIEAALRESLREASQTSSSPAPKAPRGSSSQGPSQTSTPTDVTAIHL
So I've got a bunch of compounds here, and I need their IC50 values.

Q: For the compound CC(C)Nc1nc([C@@H](C)O)cc2cnc(Nc3ccc(N4CCN(C(C)C)CC4=O)cn3)nc12 [Compound 584] , give its measured IC50 value.
A: < 10 nM

Q: For the compound COCC(C)(C)Nc1nc([C@@H](C)O)cc2cnc(Nc3ccc(C4CCCNC4)cn3)nc12 (stereo partly shown) [Compound 333] , give its measured IC50 value.
A: < 10 nM

Q: For the compound CN(C)CCOc1ccc(Nc2ncc3cc(C(F)F)nc(N[C@H]4CCCOC4)c3n2)nc1 [Compound 382] , give its measured IC50 value.
A: < 10 nM

Q: For the compound CCCN1CCN(Cc2ccc(Nc3ncc4cc([C@@H](C)O)nc(NC(C)(C)COC)c4n3)nc2)CC1 [Compound 243] , give its measured IC50 value.
A: < 10 nM

Q: For the compound CN(C)CCOc1ccc(Nc2ncc3cc(C(F)F)nc(N[C@H]4CC[C@@H](O)CC4)c3n2)nc1 [Compound 426] , give its measured IC50 value.
A: < 10 nM

Q: For the compound CO[C@H](C)c1cc2cnc(Nc3ccc(CN4CCNCC4)cn3)nc2c(NC(C)C)n1 [Compound 220] , give its measured IC50 value.
A: < 10 nM

Q: For the compound COC(=O)CCc1ccc(Nc2ncc3cc(C(F)F)nc(NC(C)C)c3n2)nc1 [Compound 102] , give its measured IC50 value.
A: 10 to 100 nM

Q: For the compound COC(C)c1cc2cnc(Nc3ccc(CN4CCNCC4)cn3)nc2c(NCC2CCCOC2)n1 (stereo not shown) [Compound 400] , give its measured IC50 value.
A: < 10 nM

Q: For the compound CC(C)Nc1nc(C(F)F)cc2cnc(Nc3ccc(CN4CCC(C(=O)O)CC4)cn3)nc12 [Compound 129] , give its measured IC50 value.
A: < 10 nM

Q: For the compound CO[C@H](C)c1cc2cnc(Nc3ccc(-c4cccnc4)cn3)nc2c(NC(C)C)n1 [Compound 331] , give its measured IC50 value.
A: ≥ 100 nM

Q: For the compound CC(C)Nc1nc(C(F)F)cc2cnc(Nc3ccc(C(=O)N4CCOCC4)cn3)nc12 [Compound 169] , give its measured IC50 value.
A: < 10 nM

Q: For the compound C[C@@H](O)c1cc2cnc(Nc3ccc(CN4CCNCC4)cn3)nc2c(NC2CCOCC2)n1 [Compound 255] , give its measured IC50 value.
A: < 10 nM

Q: For the compound CC(O)c1cc2cnc(Nc3ccc(N4CCNCC4)cn3)nc2c(NC2CCCC2)n1 (stereo not shown) [Compound 8] , give its measured IC50 value.
A: < 10 nM

Q: For the compound COC(C)c1cc2cnc(Nc3ccc(CN4CCNCC4)cn3)nc2c(NC23CCC(C(=O)O)(CC2)CC3)n1 (stereo not shown) [Compound 475] , give its measured IC50 value.
A: 10 to 100 nM

Q: For the compound CC(C)Nc1nc([C@@H](C)O)cc2cnc(Nc3ccc(N4CCC(O)CC4)nn3)nc12 [Compound 260] , give its measured IC50 value.
A: < 10 nM

Q: For the compound CC(C)Nc1nc(C(F)F)cc2cnc(Nc3ccc(CN4CCCC(CO)C4)cn3)nc12 (stereo not shown) [Compound 127] , give its measured IC50 value.
A: < 10 nM

###

molecular target: CDK4/cyclin D3 (Homo sapiens); construct: purchased Carna Biosciences, Inc. QS S Assist CDK4/Cyclin D3_FP Kit; assay: Human CDK4/cyclin D3 inhibitory activity (QS S Assist CDK4/Cyclin D3_FP Kit, IMAP fluorescence polarization); format: biochemical; details: 50% inhibitory concentration against CDK4/cyclin D3, given as class symbol
Experimental Readout: IC50

Q: For the compound C[C@@H](O)c1cc2cnc(Nc3ccc(CC4CCN(CCO)CC4)cn3)nc2c(NCC2CCOCC2)n1 , give its measured IC50 value.
A: < 10 nM

Q: For the compound CC(C)Nc1nc([C@@H](C)O)cc2cnc(Nc3ccc(N4CCN(CC(C)(C)O)CC4=O)cn3)nc12 , give its measured IC50 value.
A: < 10 nM

Q: For the compound CN(C)CCOC(=O)N1CCc2nc(Nc3ncc4cc(C5(C)COC5)nc(N[C@H]5CCCOC5)c4n3)ccc2C1 , give its measured IC50 value.
A: < 10 nM

Q: For the compound N#CCN1CCN(Cc2ccc(Nc3ncc4cc(C5CCOC5)nc(N[C@H]5CCCOC5)c4n3)nc2)CC1 (stereo partly drawn) , give its measured IC50 value.
A: < 10 nM

Q: For the compound CO[C@H](C)c1cc2cnc(Nc3ccc4c(n3)CCN(CCN(C)C)C4)nc2c(N[C@H]2CC[C@H](O)CC2)n1 , give its measured IC50 value.
A: < 10 nM

Q: For the compound CC(=O)c1nc(NC(C)C)c2nc(Nc3ccc(N4CCNCC4=O)cn3)ncc2c1Cl , give its measured IC50 value.
A: < 10 nM

Q: For the compound COC[C@H](C)Nc1nc([C@@H](C)O)c(Cl)c2cnc(Nc3ccc(N4CCC(O)CC4)nn3)nc12 , give its measured IC50 value.
A: 10 to 100 nM

Q: For the compound CCCNc1nc([C@@H](C)O)cc2cnc(Nc3ccc(CN4CCC(CO)CC4)cn3)nc12 , give its measured IC50 value.
A: < 10 nM

Q: For the compound CC(C)Nc1nc([C@@H](C)O)cc2cnc(Nc3ccc(N(C)CCN(C)C)cn3)nc12 , give its measured IC50 value.
A: < 10 nM

Q: For the compound CC(C)Nc1nc([C@@H](C)O)cc2cnc(Nc3cc4c(cn3)CNCC4)nc12 , give its measured IC50 value.
A: 10 to 100 nM

Q: For the compound CCCCNc1nc([C@@H](C)O)cc2cnc(Nc3ccc(CN4CCC[C@H](O)C4)cn3)nc12 , give its measured IC50 value.
A: < 10 nM

Q: For the compound CO[C@H](C)c1cc2cnc(Nc3ccc(CN4CCN(CCO)CC4)cn3)nc2c(N[C@H](C)CO)n1 , give its measured IC50 value.
A: < 10 nM

Q: For the compound CC(C)Nc1nc(C2CCCO2)cc2cnc(Nc3ccc(N4CCNCC4)nn3)nc12 (single isomer, unassigned) [Compound 713] , give its measured IC50 value.
A: < 10 nM

Q: For the compound COC1CCC(Nc2nc([C@@H](C)O)cc3cnc(Nc4ccc(N5CCN(C)CC5)nn4)nc23)CC1 (stereo partly drawn) , give its measured IC50 value.
A: < 10 nM

Q: For the compound C[C@@H](O)c1cc2cnc(Nc3ccc4c(n3)CCN(CCO)C4)nc2c(N[C@H]2CCCOC2)n1 , give its measured IC50 value.
A: < 10 nM

Q: For the compound CC(C)Nc1nc([C@@H](C)O)cc2cnc(Nc3ccc(C4CCN(C(C)(C)C(=O)O)CC4)nn3)nc12 , give its measured IC50 value.
A: < 10 nM

Q: For the compound CC(C)Nc1nc([C@@H](C)O)cc2cnc(Nc3ccc(N4CCC(O)C(C)(C)C4)nn3)nc12 (stereo partly drawn) , give its measured IC50 value.
A: < 10 nM

Q: For the compound CC1(c2cc3cnc(Nc4ccc(CN5CCNCC5)cn4)nc3c(NC3CCC3)n2)COC1 , give its measured IC50 value.
A: < 10 nM

Q: For the compound CCNc1nc([C@@H](C)O)cc2cnc(Nc3ccc(CN4CCN(CCO)CC4)cn3)nc12 , give its measured IC50 value.
A: < 10 nM

Q: For the compound CC(C)Nc1nc([C@@H](C)O)cc2cnc(Nc3ccc(CN4CCC(O)CC4)cn3)nc12 , give its measured IC50 value.
A: < 10 nM

Q: For the compound CN(C)CCN1CCc2nc(Nc3ncc4cc(C5CCOC5)nc(N[C@H]5CC[C@H](O)CC5)c4n3)ccc2C1 (stereo partly drawn) , give its measured IC50 value.
A: < 10 nM

Q: For the compound CC(C)Nc1nc(C2CCOC2)cc2cnc(Nc3ccc(N4CCNCC4)cn3)nc12 (stereo not drawn) , give its measured IC50 value.
A: < 10 nM

Q: For the compound CNC(=O)CN1CCN(Cc2ccc(Nc3ncc4cc([C@@H](C)OC)nc(NC(C)C)c4n3)nc2)CC1 , give its measured IC50 value.
A: < 10 nM

Q: For the compound CCCNc1nc([C@@H](C)OC)cc2cnc(Nc3ccc(CN4C[C@H]5C[C@@H]4CN5)cn3)nc12 , give its measured IC50 value.
A: < 10 nM

Q: For the compound CC(C)Nc1nc(C2CCCO2)cc2cnc(Nc3ccc(N4CCNCC4)cn3)nc12 (stereo not drawn) [Compound 992] , give its measured IC50 value.
A: 10 to 100 nM

Q: For the compound CC(C)Nc1nc([C@@H](C)O)c(F)c2cnc(Nc3ccc(N4CCNCC4=O)cn3)nc12 , give its measured IC50 value.
A: < 10 nM

Q: For the compound C[C@@H](O)c1cc2cnc(Nc3ccc(CC4CCNCC4)cn3)nc2c(NCC2CCOCC2)n1 , give its measured IC50 value.
A: < 10 nM

Q: For the compound CO[C@H](C)c1cc2cnc(Nc3ccc(N4CCN(C5COC5)CC4)nn3)nc2c(NC(C)C)n1 , give its measured IC50 value.
A: 10 to 100 nM

Q: For the compound CC(C)Nc1nc([C@@H](C)O)cc2cnc(Nc3ccc(N4CCC(O)CC4=O)cn3)nc12 (stereo partly drawn) , give its measured IC50 value.
A: < 10 nM

Q: For the compound CCNc1nc([C@@H](C)O)cc2cnc(Nc3ccc(N4CCNCC4=O)cn3)nc12 , give its measured IC50 value.
A: 10 to 100 nM

The reported measurements were obtained from patent US10124004B2.
